- experimental target: CES2 (Homo sapiens, UniProt O00748)
- Construct: purchased Corning Incorporated (Corning, NY); host or cells: baculovirus-infected insect cells (microsomal fraction, Supersomes)
- Sequence (O00748 27-559): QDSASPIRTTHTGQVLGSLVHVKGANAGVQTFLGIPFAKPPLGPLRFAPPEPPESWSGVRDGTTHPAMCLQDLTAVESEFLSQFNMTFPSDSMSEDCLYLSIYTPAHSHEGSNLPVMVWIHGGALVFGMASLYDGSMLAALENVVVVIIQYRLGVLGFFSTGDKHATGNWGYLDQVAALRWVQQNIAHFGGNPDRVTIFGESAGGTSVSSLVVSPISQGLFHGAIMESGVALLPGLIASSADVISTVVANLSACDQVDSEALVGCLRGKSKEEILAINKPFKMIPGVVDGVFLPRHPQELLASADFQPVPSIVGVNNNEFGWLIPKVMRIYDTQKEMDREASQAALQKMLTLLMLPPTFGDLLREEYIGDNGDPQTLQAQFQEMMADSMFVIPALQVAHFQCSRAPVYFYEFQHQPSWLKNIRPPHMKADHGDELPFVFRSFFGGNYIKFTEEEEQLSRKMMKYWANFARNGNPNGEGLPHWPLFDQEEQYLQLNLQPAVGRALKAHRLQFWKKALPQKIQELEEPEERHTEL
- method summary: CES2-catalyzed hydrolysis of RDV and control (substrate disappearance, LC-MS)
- Type: in vitro ADME
- conditions: human, CES2 Supersomes (protein-enriched subcellular fraction), pH 7.4, as stated in text; read-out: half-life, CES2
readout: half-life at 1 μM

>>> observed_measurement("CCC(CC)COC(=O)[C@H](C)N[P@](=O)(OC[C@H]1O[C@@](C#N)(c2ccc3c(N)ncnn23)[C@H](O)[C@@H]1O)Oc1ccccc1 [RDV, Remdesivir]")
"> 16 h"

----------
- experimental target: UniProt:P10619
- method summary: CatA-catalyzed hydrolysis of RDV and control (substrate disappearance, LC-MS)
- conditions: human, recombinant CatA (activated with CatL), pH 6.5
readout: half-life at 1 μM

>>> observed_measurement("CCC(CC)COC(=O)[C@H](C)N[P@](=O)(OC[C@H]1O[C@@](C#N)(c2ccc3c(N)ncnn23)[C@H](O)[C@@H]1O)Oc1ccccc1")
"43 min"

----------
- experimental target: CES2 (Homo sapiens, UniProt O00748)
- Construct: purchased Corning Incorporated (Corning, NY); host or cells: baculovirus-infected insect cells (microsomal fraction, Supersomes)
- Sequence (O00748 27-559): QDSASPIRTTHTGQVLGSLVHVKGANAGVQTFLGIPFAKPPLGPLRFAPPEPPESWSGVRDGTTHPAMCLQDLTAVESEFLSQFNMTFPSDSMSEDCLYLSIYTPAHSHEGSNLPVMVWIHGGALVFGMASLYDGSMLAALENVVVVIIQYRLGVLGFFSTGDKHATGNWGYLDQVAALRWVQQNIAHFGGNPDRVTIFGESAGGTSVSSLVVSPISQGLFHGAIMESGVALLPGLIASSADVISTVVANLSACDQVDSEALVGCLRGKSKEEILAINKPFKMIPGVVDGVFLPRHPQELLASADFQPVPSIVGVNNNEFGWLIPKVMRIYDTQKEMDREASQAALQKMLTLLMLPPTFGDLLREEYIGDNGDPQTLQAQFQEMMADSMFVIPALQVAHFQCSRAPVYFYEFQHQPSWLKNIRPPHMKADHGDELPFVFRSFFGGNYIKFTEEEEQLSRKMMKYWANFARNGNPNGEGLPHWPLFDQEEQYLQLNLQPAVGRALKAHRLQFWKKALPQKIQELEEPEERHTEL
- method summary: CES2-catalyzed hydrolysis of 4-NPA, inhibition by inhibitors
- Assay type: biochemical
- conditions: substrate 4-NPA; read-out: Inhibition (IC50) of enzyme activities, CES2
pIC50: −log10 of the molar value.
readout: pIC50

>>> observed_measurement("Nc1nc2c(ncn2[C@@H]2O[C@H](COC(=O)NCCc3c[nH]c4ccccc34)[C@@H](O)[C@H]2O)c(=O)[nH]1 [TrpGc]")
"< 4.00"

----------
- Tested on: SARS-CoV-2
- method summary: microbe, parasite or virus in culture
- Format: cell-based
- conditions: compound alone (plus DMSO), A549-hACE2 cells, 48 h
pEC50: −log10 of the molar value.
readout: pEC50

>>> observed_measurement("CCC[C@H](NC(=O)[C@@H]1[C@H]2CCC[C@H]2CN1C(=O)[C@@H](NC(=O)[C@@H](NC(=O)c1cnccn1)C1CCCCC1)C(C)(C)C)C(=O)C(=O)NC1CC1 [Telaprevir]")
"< 4.30"

----------
- experimental target: CES2 (Homo sapiens, UniProt O00748)
- Construct: purchased Corning Incorporated (Corning, NY); host or cells: baculovirus-infected insect cells (microsomal fraction, Supersomes)
- method summary: CES2-catalyzed hydrolysis of 4-NPA, inhibition by inhibitors
- Format: biochemical
pIC50: −log10 of the molar value.
readout: pIC50

>>> observed_measurement("CCC[C@H](NC(=O)[C@@H]1[C@H]2CCC[C@H]2CN1C(=O)[C@@H](NC(=O)[C@@H](NC(=O)c1cnccn1)C1CCCCC1)C(C)(C)C)C(=O)C(=O)NC1CC1")
"< 4.00"

----------
- experimental target: CES1c (Homo sapiens)
- Construct: purchased Corning Incorporated (Corning, NY); host or cells: baculovirus-infected insect cells (microsomal fraction, Supersomes)
- Sequence (P23141 18-566 isoform P23141-3 limits assumed): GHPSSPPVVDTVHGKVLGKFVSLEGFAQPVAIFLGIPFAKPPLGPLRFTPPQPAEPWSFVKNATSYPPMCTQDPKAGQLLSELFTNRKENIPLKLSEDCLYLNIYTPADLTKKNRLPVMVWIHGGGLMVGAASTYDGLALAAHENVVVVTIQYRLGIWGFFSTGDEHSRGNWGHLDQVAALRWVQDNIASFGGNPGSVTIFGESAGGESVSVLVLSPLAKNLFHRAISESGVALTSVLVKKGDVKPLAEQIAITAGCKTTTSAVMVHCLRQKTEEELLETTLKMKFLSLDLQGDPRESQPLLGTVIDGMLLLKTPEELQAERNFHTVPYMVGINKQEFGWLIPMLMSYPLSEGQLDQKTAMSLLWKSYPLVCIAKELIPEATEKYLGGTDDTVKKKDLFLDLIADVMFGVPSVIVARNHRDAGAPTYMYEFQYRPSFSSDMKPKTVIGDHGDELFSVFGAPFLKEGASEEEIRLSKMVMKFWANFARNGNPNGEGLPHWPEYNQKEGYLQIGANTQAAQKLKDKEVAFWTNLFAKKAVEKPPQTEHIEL
- method summary: CES1c-catalyzed hydrolysis of 4-NPA, inhibition by inhibitors
- Assay type: biochemical
- conditions: substrate 4-NPA; read-out: Inhibition (IC50) of enzyme activities, CES1c
readout: IC50 (µM)

>>> observed_measurement("O=[N+]([O-])c1ccc(OP(=O)(O)Oc2ccc([N+](=O)[O-])cc2)cc1 [BNPP, bis(4-nitrophenyl)phosphate]")
14

----------
- experimental target: CatA (Homo sapiens, UniProt P10619)
- method summary: CatA-catalyzed hydrolysis of fluorogenic peptide substrate, inhibition
- Format: biochemical
- Design: purchased R&D Systems (Minneapolis, MN)
- conditions: pH 5.5, fluorogenic peptide substrate; read-out: Inhibition (IC50) of enzyme activities, CatA pH 5.5
readout: IC50

>>> observed_measurement("Nc1nc2c(ncn2[C@@H]2O[C@H](COC(=O)NCCc3c[nH]c4ccccc34)[C@@H](O)[C@H]2O)c(=O)[nH]1")
"> 100 µM"
>>> observed_measurement("O=[N+]([O-])c1ccc(OP(=O)(O)Oc2ccc([N+](=O)[O-])cc2)cc1 [BNPP, bis(4-nitrophenyl)phosphate]")
"> 100 µM"

----------
- experimental target: CatA (Homo sapiens)
- Sequence (P10619 29-326 limits assumed): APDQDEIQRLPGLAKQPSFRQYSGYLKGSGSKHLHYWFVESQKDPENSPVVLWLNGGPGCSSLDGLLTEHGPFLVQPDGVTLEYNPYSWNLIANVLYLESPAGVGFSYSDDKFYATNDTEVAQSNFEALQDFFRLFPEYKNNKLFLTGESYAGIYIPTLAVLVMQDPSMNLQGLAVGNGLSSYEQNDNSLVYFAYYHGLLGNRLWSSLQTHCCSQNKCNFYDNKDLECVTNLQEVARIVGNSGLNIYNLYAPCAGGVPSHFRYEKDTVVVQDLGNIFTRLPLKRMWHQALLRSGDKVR
- Sequence (P10619 327-480 limits assumed): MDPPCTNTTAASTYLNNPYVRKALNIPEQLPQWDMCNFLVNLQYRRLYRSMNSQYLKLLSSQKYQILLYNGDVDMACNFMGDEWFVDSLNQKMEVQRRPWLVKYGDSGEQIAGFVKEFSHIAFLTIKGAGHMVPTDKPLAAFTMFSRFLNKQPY
- method summary: CatA-catalyzed hydrolysis of RDV and control (substrate disappearance, LC-MS)
- conditions: human, pH 6.5
Structures can show the parent of a compound that is named as a salt.
readout: half-life at 1 μM (min)

>>> observed_measurement("CC(C)OC(=O)[C@H](C)N[P@](=O)(CO[C@H](C)Cn1cnc2c(N)ncnc21)Oc1ccccc1 [TAF (GS-7340), tenofovir alafenamide fumarate]")
13

Data origin: paper PMC8370248
